// cross-study collection: IC50 for 11-beta-hydroxysteroid dehydrogenase 1 (Homo sapiens)
experimental.readout: IC50 (nM)

Read off the recorded IC50 for O=C(CCCOc1ccc(Cl)cc1Cl)NC1C2CC3CC1CC(O)(C3)C2 (stereo not shown) 4

Read off the recorded IC50 for C[C@H](NC1=NS(=O)(=O)C(c2ccc(-c3cccc(C(N)=O)c3)cc2)C(C)(C)O1)c1ccccc1F (stereo partly shown) 12

(P) NC(=O)C12CC3CC(C1)C(NC(=O)C1(CNC(=O)c4ccc(F)c(F)c4)CC1)C(C3)C2 (stereo not shown)
(Q) CC1(C)OC(N[C@@H](CCO)c2ccccc2F)=NS(=O)(=O)C1c1ccc(N2CCCC2=O)cc1 (stereo partly shown)
Sorting by IC50 in descending order, would P or Q appear first? To answer, give the label that identifies your chosen option. Q
(Q: 14 nM, P: 9.6 nM)

---

pIC50: −log10 of the molar value.
// cross-study collection: pIC50 for 11-beta-hydroxysteroid dehydrogenase 1 (Homo sapiens, UniProt P28845)
experimental.readout: pIC50

(P) Cn1cc(-c2ccc(C(C3CC3)N3CCC(CC(C)(C)O)(c4ccccc4)OC3=O)cc2)ccc1=O (stereo not shown)
(Q) CC1(C)OC(N[C@@H](CCO)c2ccccc2F)=NS(=O)(=O)C1c1cccnc1 (stereo partly shown)
(R) CCN(C(=O)CCCOc1ccccc1)C1C2CC3CC1CC(O)(C3)C2 (stereo not shown)
(S) CC1(C)CC2CC(C)(CN2S(=O)(=O)c2ccc(C3CCCCC3)cc2)C1 (stereo not shown)
Rank the 4 compounds shown above by pIC50, smallest number first. Labels, ranked as asked. S, R, P, Q
(S: 6.38, R: 7.21, P: 7.46, Q: 7.96)

---

// cross-study collection: pIC50 for 11-beta-hydroxysteroid dehydrogenase 1 (Homo sapiens)
pIC50: −log10 of the molar value.
experimental.readout: pIC50

Read off the recorded pIC50 for C[C@H](NC1=NS(=O)(=O)C(c2ccc(-c3cnc(N4CCNCC4)nc3)cc2)C(C)(C)O1)c1ccccc1F (stereo partly shown) 8.40

Read off the recorded pIC50 for CC1(C)OC(N[C@@H](CCO)c2ccccc2F)=NS(=O)(=O)C1c1ccc(-c2cccnc2)cc1 (stereo partly shown) 8.40

Read off the recorded pIC50 for NC(=O)C12CC3CC(C1)C(NC(=O)c1cccc(NS(=O)(=O)c4cc(F)cc(Cl)c4)c1)C(C3)C2 (stereo not shown) 7.69

Read off the recorded pIC50 for O=C(CCCOc1ccc(Cl)cc1Cl)N1CC2CCC1CC2O (stereo not shown) 6.40

Read off the recorded pIC50 for NC(=O)C12CC3CC(C1)C(NC(=O)C1(CNS(=O)(=O)c4cc(Cl)c(Cl)cc4F)CC1)C(C3)C2 (stereo not shown) 8.30

Read off the recorded pIC50 for NC(=O)C12CC3CC(C1)C(NC(=O)c1cccc(NS(=O)(=O)c4ccccc4C(F)(F)F)c1F)C(C3)C2 (stereo not shown) 7.94

(a) CCOC(=O)C12CCC(NC(=O)CCCOc3ccc(Cl)cc3Cl)(CC1)CC2
(b) CC1(C)OC(N[C@@H](CCO)c2ccccc2)=NS(=O)(=O)C1(C)c1cccc(N2CCCC2)c1 (stereo partly shown)
(c) CC1(C)CC2CC(C)(CN2S(=O)(=O)c2ccccc2C#N)C1 (stereo not shown)
Please give the order of these compounds when sorted by pIC50, largest value leading. Labels, ranked as asked. b, a, c
(b: 7.62, a: 6.70, c: 5.24)

---

// cross-study collection: IC50 for 11-beta-hydroxysteroid dehydrogenase 1 (Homo sapiens)
experimental.readout: IC50 (nM)

Solved entries:
Read off the recorded IC50 for "O=C(NC1CCCCC1)c1cccnc1SCCc1ccccn1" 890

Read off the recorded IC50 for COc1ccc(S(=O)(=O)N2CCCC(O)(c3ccccc3)CC2)cc1 (stereo not drawn) 1320

Read off the recorded IC50 for O=C(CCCOc1ccc(Cl)cc1Cl)N1CCCCC1c1ccccc1Cl (stereo not drawn) 296

Read off the recorded IC50 for "Cc1cccc2c1N(C(=O)N[C@H]1C3CC4CC1C[C@](O)(C4)C3)CCO2" 1.1

(P) O=S(=O)(c1ccc(Cl)cc1)N1CCCC(O)(c2ccccc2)CC1 (stereo not drawn)
(Q) NC(=O)C12CC3CC(C1)C(NC(=O)c1cccc(NS(=O)(=O)c4ccc(C(F)(F)F)c(Cl)c4)c1)C(C3)C2 (stereo not drawn)
Sorting by IC50 in descending order, would P or Q appear first? To answer, give the label that identifies your chosen option. P

---

pIC50: −log10 of the molar value.
// cross-study collection: pIC50 for 11-beta-hydroxysteroid dehydrogenase 1 (Homo sapiens)
experimental.readout: pIC50

Solved entries:
Read off the recorded pIC50 for CC1(C)OC(N[C@@H](CCO)c2ccccc2)=NS(=O)(=O)C1c1cccc(-c2ccccc2)c1 (some centres unmarked) 7.66

Read off the recorded pIC50 for C[C@H](NC1=NS(=O)(=O)C(c2ccc(C3CCN(C)CC3)cc2)C(C)(C)O1)c1ccccc1F (some centres unmarked) 6.97

Read off the recorded pIC50 for "O=C(CCCOc1ccc(Cl)cc1Cl)NC12CC3CC(CC(CO)(C3)C1)C2" 9.00

Read off the recorded pIC50 for "O=C(N[C@H]1C2CC3CC1C[C@](F)(C3)C2)N1CCCc2ccccc21" 9.00

(A) CC1(C)OC(N[C@@H](CCO)c2ccccc2F)=NS(=O)(=O)C1c1ccc(-c2ccccn2)cc1 (some centres unmarked)
(B) CN(CCO)CCCc1ccc(C2C(C)(C)OC(N[C@@H](CCO)c3ccccc3F)=NS2(=O)=O)cc1 (some centres unmarked)
(C) Cc1ccc(F)cc1[C@H](CCO)NC1=NS(=O)(=O)C(c2ccc(-c3ccccc3)cc2)C(C)(C)O1 (some centres unmarked)
(D) COC(=O)NC(C)(C)/C=C/n1ncc(C(=O)N[C@H]2C3CC4CC2C[C@](F)(C4)C3)c1-c1ccccc1
(E) O=C(CCCOc1ccc(Cl)cc1Cl)N1CC2CC(O)CC1C2 (centres unmarked)
Please give the order of these molecules when sorted by pIC50, largest value leading. Labels, ranked as asked. A, C, B, D, E
(A: 7.96, C: 7.72, B: 7.46, D: 7.20, E: 6.73)

(P) C[C@H](NC1=NS(=O)(=O)C(c2ccc(C3CCNCC3)cc2)C(C)(C)O1)c1ccccc1F (some centres unmarked)
(Q) CC1(C)OC(N[C@@H](CCO)c2ccccc2F)=NS(=O)(=O)[C@H]1c1ccc(-c2ccc(C(N)=O)cc2)cc1
(R) CC1(C)CC2CC(C)(CN2S(=O)(=O)c2ccc(Cl)c3nonc23)C1 (centres unmarked)
(S) CC(C)(CCOc1ccc(Cl)cc1Cl)C(=O)NC1C2CC3CC1CC(CO)(C3)C2 (centres unmarked)
(T) CN1CCN(c2ccc(-c3ccc(C4C(C)(C)OC(N[C@@H](CCO)c5ccccc5F)=NS4(=O)=O)cc3)nc2)CC1 (some centres unmarked)
Let's sort these by pIC50, smallest first. Go ahead? Labels, ranked as asked. R, P, T, Q, S

---

// cross-study collection: pIC50 for 11-beta-hydroxysteroid dehydrogenase 1 (Homo sapiens)
pIC50: −log10 of the molar value.
experimental.readout: pIC50

Read off the recorded pIC50 for "O=C(N[C@H]1C2CC3CC1C[C@](O)(C3)C2)N1CCc2ccccc21" 8.08

(A) CN1CCN(c2ncc(-c3ccc(C4C(C)(C)OC(N[C@@H](CCO)c5ccccc5F)=NS4(=O)=O)cc3)cn2)CC1 (stereo partly shown)
(B) NC(=O)C12CC3CC(C1)C(NC(=O)C1(NC(=O)c4ccc(C(F)(F)F)cn4)CC1)C(C3)C2 (stereo not shown)
Would you kindly point out which of A and B has the smaller pIC50 figure? To answer, give the label that identifies your chosen option. B
(B: 6.95, A: 8.40)

---

// cross-study collection: IC50 for 11-beta-hydroxysteroid dehydrogenase 1 (Homo sapiens)
experimental.readout: IC50 (nM)

Solved entries:
GET IC50 where system = 11-beta-hydroxysteroid dehydrogenase 1 (Homo sapiens) and item = C[C@H](NC1=NS(=O)(=O)C(c2ccc(-c3cnc(N)nc3)cc2)C(C)(C)O1)c1ccccc1F (stereo partly drawn) 7

GET IC50 where system = 11-beta-hydroxysteroid dehydrogenase 1 (Homo sapiens) and item = "CO[C@]12CC3CC(C1)[C@@H](NC(=O)N1CCCc4ccccc41)C(C3)C2" 0.9

GET IC50 where system = 11-beta-hydroxysteroid dehydrogenase 1 (Homo sapiens) and item = CC1(C)OC(N[C@@H](CCO)c2ccccc2F)=NS(=O)(=O)C1c1ccc(-c2cnc(N3CCNCC3)nc2)cc1 (stereo partly drawn) 2

(a) O=C(CCCOc1ccc(Cl)cc1Cl)NC12CC3CC(C1)CC(C(=O)O)(C3)C2
(b) CC(=O)N1CCCN(S(=O)(=O)c2ccc(C(C)(C)C)cc2)CC1
Sorting by IC50 in descending order, would a or b appear first? To answer, give the label that identifies your chosen option. b
(b: 254 nM, a: 13 nM)

(I) CN(C(=O)CCCOc1ccc(Cl)cc1Cl)C1CCC(C(=O)O)CC1 (stereo not drawn)
(II) CC1(C)OC(N[C@@H](CCO)c2ccccc2F)=NS(=O)(=O)C1c1ccc(-c2cccc(C#N)c2)cc1 (stereo partly drawn)
(III) COc1cccc(S(=O)(=O)N2CC3(C)CC2CC(C)(C)C3)c1 (stereo not drawn)
(IV) COc1ccc(C2C(C)(C)OC(N[C@@H](CCO)c3ccccc3)=NS2(=O)=O)cc1 (stereo partly drawn)
(V) O=C(CCCOc1ccc(Cl)cc1Cl)NC1C2CC3CC1CC(CO)(C3)C2 (stereo not drawn)
Let's sort these by IC50, smallest first. Go ahead? Labels, ranked as asked. V, II, IV, I, III

(P) CCN(C(=O)CCCOc1ccc(Cl)cc1Cl)C1C2CC3CC1CC(O)(C3)C2 (stereo not drawn)
(Q) O=C(CCCOc1ccc(Cl)cc1Cl)NC1C2CC3CC(C2)C(CO)C1C3 (stereo not drawn)
Sorting by IC50 in descending order, would P or Q appear first? To answer, give the label that identifies your chosen option. P

(A) CC1(C)CC2CC(C)(CN2S(=O)(=O)c2ccc(-c3cnco3)cc2)C1 (stereo not drawn)
(B) CC1(C)OC(N[C@@H](CCO)c2ccccc2)=NS(=O)(=O)C1(C)c1cccc(N2CCN(S(C)(=O)=O)CC2)c1 (stereo partly drawn)
Sorting by IC50 in descending order, would A or B appear first? To answer, give the label that identifies your chosen option. A

(A) CCc1ccc(S(=O)(=O)N2CC3(C)CC2CC(C)(C)C3)cc1 (stereo not drawn)
(B) C[C@H](NC1=NS(=O)(=O)C(c2cccnc2)C(C)(C)O1)c1ccccc1F (stereo partly drawn)
(C) O=C(CCCOc1ccc(Cl)cc1Cl)N1CC2CC3CC1CC(O)(C3)C2 (stereo not drawn)
Please give the order of these compounds when sorted by IC50, largest value leading. Labels, ranked as asked. A, B, C

(P) O=C(CCCOc1ccc(Cl)cc1Cl)N1CC2CCC(C1)C2O (stereo not drawn)
(Q) CC1(C)OC(N[C@@H](CCO)c2ccccc2Cl)=NS(=O)(=O)C1c1ccc(-c2ccccc2)cc1 (stereo partly drawn)
Sorting by IC50 in descending order, would P or Q appear first? To answer, give the label that identifies your chosen option. P
(P: 252 nM, Q: 17 nM)
